- System: SW-620
- procedure.text: NCI tumour cell line growth inhibition, 48 h
The source made the active and inactive calls. Rule as the data show it: active = GI50 up to about 1.1 µM and inactive = higher.

molecule: O=C(NC(c1ccccc1)C(O)C(=O)OCc1ccc2c(c1)C(=O)c1ccccc1C2=O)c1ccccc1 (centres undefined)
system.under.test: SW-620
GI50: 63.5 µM (inactive)
--
molecule: Cc1cc2nc3c(C#N)c(-c4ccccc4)cc(Nc4ccc(F)cc4)n3c2cc1C
system.under.test: SW-620
GI50: 55.5 µM (inactive)
--
molecule: O=P1(N2CCOCC2)OCCO1
system.under.test: SW-620
GI50: > 100 µM (inactive)
--
molecule: Nc1c(S(=O)(=O)O)cc(Nc2cccc(S(N)(=O)=O)c2)c2c1C(=O)c1ccccc1C2=O
system.under.test: SW-620
GI50: 74.5 µM (inactive)
--
molecule: CCCCCCCCCC(=O)Oc1cccc2onc(C)c12
system.under.test: SW-620
GI50: > 100 µM (inactive)
--
molecule: COc1cc(OCc2nc3cc(C(F)(F)F)ccc3nc2-c2ccccc2)cc(OC)c1OC
system.under.test: SW-620
GI50: > 100 µM (inactive)
--
molecule: O=C1c2c(Cl)c(Cl)c(Cl)c(Cl)c2C(=O)N1CCN(c1c(Cl)ssc1=O)c1c(Cl)ssc1=O
system.under.test: SW-620
GI50: 22.5 µM (inactive)
--
molecule: N#Cc1cn(-c2c3ccccc3nc3ccccc23)c(=O)[nH]c1=O
system.under.test: SW-620
GI50: 5.01 µM (inactive)
--
molecule: CCOC(=O)c1c(N2CCCC2)[nH]c(=O)c(C(c2ccc(Cl)c([N+](=O)[O-])c2)c2c(O)c(C(=O)OCC)c(N3CCCC3)[nH]c2=O)c1O
system.under.test: SW-620
GI50: 33.3 µM (inactive)
--
molecule: COC1C=CC23c4cc5c(cc4C(O)OC2CN(C)C3C1)OCO5 (centres undefined)
system.under.test: SW-620
GI50: 1.59 µM (inactive)
--
molecule: Cc1nc2ccc(Br)cc2c(=O)n1-c1nnc(C(C)(C)C)s1
system.under.test: SW-620
GI50: > 10 µM (inactive)
--
molecule: Cc1ccc(S(=O)(=O)N/N=C2/CC3CCC4CC2CC34)cc1 (centres undefined)
system.under.test: SW-620
GI50: > 100 µM (inactive)
--
molecule: Cc1nnc(N)nc1/C=C/c1c(O)ccc2ccccc12
system.under.test: SW-620
GI50: 31.6 µM (inactive)
--
molecule: O=C1CSC(=O)/C1=C\NNc1nc2ccccc2o1
system.under.test: SW-620
GI50: 29.8 µM (inactive)
--
molecule: O=C(O)CC1OCC=C2CN3CCC45C6=CC(=O)C(O)=C([N+](=O)[O-])C6=NC4C1C2CC35 (centres undefined)
system.under.test: SW-620
GI50: 47 µM (inactive)
--
molecule: C=C1OC(=O)[C@]2([C@@H](/C=C/C)C=CC(=O)[C@H]2O)[C@@H]1O
system.under.test: SW-620
GI50: > 100 µM (inactive)
--
molecule: CC(C)(C)OC(=O)[N+](=N)C(=O)C1CCC(=O)N1C(=O)OCc1ccccc1 (centres undefined)
system.under.test: SW-620
GI50: > 100 µM (inactive)
--
molecule: CC1=CC(C)(c2c[nH]c3ccccc23)CC(C)(C)c2c1[nH]c1ccccc21 (centres undefined)
system.under.test: SW-620
GI50: 16.9 µM (inactive)
--
molecule: CN1CC=C(c2cccn2C)CC1
system.under.test: SW-620
GI50: > 100 µM (inactive)
